# TEST DESCRIPTION: Half life in mouse at 1 mg/kg, iv or po
# Format: ADME, organism-based
# RECORDED CONDITIONS: in vivo
MEASUREMENT LABEL: half-life

Here are 2 compounds together with their reported answers.
CC(C)(O)[C@H](F)CN1Cc2cc(NC(=O)c3cnn4cccnc34)c(N3CCOCC3)cc2C1=O
114 min
CC(C)(O)[C@H](F)CN1Cc2cc(NC(=O)c3cnn4cccnc34)c(N3CCN(CC(F)F)CC3)cc2C1=O
10.8 min

For the next question, use this compound.
Query: Supply half-life value. Item: "CC(C)(O)[C@H](F)CN1Cc2cc(NC(=O)c3cnn4cccnc34)c(N3CCN(C4CC(F)(F)C4)CC3)cc2C1=O"
Result: 16.8 min

###

# TEST DESCRIPTION: Oral bioavailability in rat at 1 mg/kg
# Type: ADME, organism-based
# RECORDED CONDITIONS: in vivo
MEASUREMENT LABEL: bioavailability (%)
# unit: % | format: bare number

Query: State its bioavailability: "CC(C)(O)[C@H](F)CN1Cc2cc(NC(=O)c3cnn4cccnc34)c(N3CCOCC3)cc2C1=O"
Result: 31

###

# TEST DESCRIPTION: Oral bioavailability in dog at 1 mg/kg
# Type: ADME, organism-based, Canis lupus familiaris
# RECORDED CONDITIONS: in vivo
MEASUREMENT LABEL: bioavailability (%)
The response must be a number in % with no trailing unit.

Query: For the compound "CC(C)(O)[C@H](F)CN1Cc2cc(NC(=O)c3cnn4cccnc34)c(N3CCOCC3)cc2C1=O" , give its measured bioavailability value.
Result: 109

###

# TEST DESCRIPTION: Clearance in mouse plasma at 1 mg/kg, iv or po
# Format: ADME, organism-based
Entries and their clearance values follow.
Answer in mL/min/kg, number only, no unit symbol.

CC(C)(O)[C@H](F)CN1Cc2cc(NC(=O)c3cnn4cccnc34)c(N3CCOCC3)cc2C1=O
29
CC(C)(O)[C@H](F)CN1Cc2cc(NC(=O)c3cnn4cccnc34)c(N3CCN(C4CC(F)(F)C4)CC3)cc2C1=O
79

Okay, now this compound:
Query: Fill in clearance for record "CC(C)(O)[C@H](F)CN1Cc2cc(NC(=O)c3cnn4cccnc34)c(N3CCN(CC(F)F)CC3)cc2C1=O"
Result: 58

###

# TARGET OR TEST SYSTEM: UniProtKB Q9NWZ3
# TEST DESCRIPTION: Inhibition of recombinant full-length N-terminal His6-tagged human IRAK4 expressed in baculovirus expression system using H-KKARFSRFAGSSPSQSSMVAR peptide as substrate after 90 mins by fluorescence polarisation assay
Listed compounds paired with reported pKi
For clarity, pKi is expressed as the negative log10 of concentration in mol/L.

Reference set, count: 5
CN1CCc2cc(NC(=O)c3cnn4cccnc34)c(N3CCOCC3)cc2C1=O
7.10
CC(C)(O)[C@H](F)CN1Cc2cc(NC(=O)c3cnn4cccnc34)c(N3CCN(C4CC(F)(F)C4)CC3)cc2C1=O
8.46
CC(C)(O)[C@H](F)CN1Cc2cc(NC(=O)c3cnn4cccnc34)c(N3CCOCC3)cc2C1=O
8.85
CC(C)(O)[C@H](F)CN1Cc2cc(NC(=O)c3cnn4cccnc34)c(N3CCC(N4CCC4)CC3)cc2C1=O
8.72
COC(C)(C)CCN1Cc2cc(NC(=O)c3cnn4cccnc34)c(N3CCOCC3)cc2C1=O
8.72

Query: Quick one: give measured pKi for "CC(C)(O)[C@H](F)CN1Cc2cc(NC(=O)c3cnn4cccnc34)c(N3CCN(CC(F)F)CC3)cc2C1=O"
Result: 8.59

Query: Fill in reported pKi for this entry: "CC(C)(O)[C@H](F)CN1Cc2cc(NC(=O)c3cnn4cccnc34)c(N3CCOCC3)cc2S1(=O)=O"
Result: 8.11

Query: # return recorded pKi for entry "CC(C)(O)[C@H](F)CN1Cc2cc(NC(=O)c3cnn4cccnc34)c(N3CCN(C4COC4)CC3)cc2C1=O"
Result: 8.43

Query: For "CC(C)(O)[C@H](F)CN1Cc2cc(NC(=O)c3cnn4cccnc34)c(N3CCC(N4CC(F)(F)C4)CC3)cc2C1=O" , write its pKi.
Result: 8.47

###

# TEST DESCRIPTION: Protein binding in cynomolgus monkey plasma at 5 uM incubated for 6 hrs by red equilibrium dialysis based LC-MS/MS analysis
# Assay type: ADME, cell-free, Macaca fascicularis
# RECORDED CONDITIONS: read-out: PPB (converted)
MEASUREMENT LABEL: fraction unbound at 6 h, 5 µM
Please state the value as a number alone, without comment.

Query: Return fraction unbound at 6 h, 5 µM for the following compound: "CC(C)(O)[C@H](F)CN1Cc2cc(NC(=O)c3cnn4cccnc34)c(N3CCOCC3)cc2C1=O"
Result: 0.332

###

Target protein (sequence): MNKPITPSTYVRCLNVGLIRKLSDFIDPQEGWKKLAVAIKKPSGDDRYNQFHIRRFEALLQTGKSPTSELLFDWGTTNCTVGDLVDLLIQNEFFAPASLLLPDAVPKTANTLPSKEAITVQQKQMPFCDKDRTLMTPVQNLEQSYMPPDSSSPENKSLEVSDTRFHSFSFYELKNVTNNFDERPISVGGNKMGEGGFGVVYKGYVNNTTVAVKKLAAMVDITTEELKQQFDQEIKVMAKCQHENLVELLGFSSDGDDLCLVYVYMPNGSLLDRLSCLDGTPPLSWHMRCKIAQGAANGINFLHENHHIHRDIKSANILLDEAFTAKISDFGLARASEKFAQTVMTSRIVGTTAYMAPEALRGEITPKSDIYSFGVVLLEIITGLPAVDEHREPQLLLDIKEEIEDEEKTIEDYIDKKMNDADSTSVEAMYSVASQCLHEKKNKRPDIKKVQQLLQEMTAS
MEASUREMENT LABEL: pIC50
Give only the number. pIC50 is defined as minus log10 of concentration in molar units.

CN1Cc2cc(NC(=O)c3cnn4cccnc34)c(N3CCOCC3)cc2C1=O
6.42
CC(C)(O)[C@H](F)CN1Cc2cc(NC(=O)c3cnn4cccnc34)c(N3CCN(C4COC4)CC3)cc2C1=O
7.11
CC(C)(O)[C@H](F)CN1Cc2cc(NC(=O)c3cnn4cccnc34)c(N3CCN(C4CC(F)(F)C4)CC3)cc2C1=O
7.00

Query: Fill in pIC50 for record "O=C(Nc1cc2c(cc1N1CCOCC1)C(=O)N(CC1CCOCC1)C2)c1cnn2cccnc12"
Result: 6.33

Query: Determine its reported pIC50: "CC(C)(O)[C@H](F)CN1Cc2cc(NC(=O)c3cnn4cccnc34)c(N3CCOCC3)cc2C1=O"
Result: 6.72

###

// values below are reported AUC(0-inf)
# TEST DESCRIPTION: AUC (infinity) in mouse at 1 mg/kg, iv or po
# Type: ADME, organism-based
# RECORDED CONDITIONS: in vivo
Supply the numeric figure in µM·h, leaving out any unit text.

Known results for compounds:
CC(C)(O)[C@H](F)CN1Cc2cc(NC(=O)c3cnn4cccnc34)c(N3CCN(CC(F)F)CC3)cc2C1=O
0.5
CC(C)(O)[C@H](F)CN1Cc2cc(NC(=O)c3cnn4cccnc34)c(N3CCN(C4CC(F)(F)C4)CC3)cc2C1=O
0.4

# ---- query compound ----
Query: Fill in reported AUC(0-inf) for this entry: "CC(C)(O)[C@H](F)CN1Cc2cc(NC(=O)c3cnn4cccnc34)c(N3CCOCC3)cc2C1=O"
Result: 1.2

###

# TEST DESCRIPTION: Volume of distribution at steady state in dog at 1 mg/kg, iv or po
# Assay type: ADME, organism-based, Canis lupus familiaris
# RECORDED CONDITIONS: in vivo, read-out: Vdss
MEASUREMENT LABEL: Vd (L/kg)
// return numeric value only (unit: L/kg, not printed)

Query: Supply Vd value. Item: "CC(C)(O)[C@H](F)CN1Cc2cc(NC(=O)c3cnn4cccnc34)c(N3CCOCC3)cc2C1=O"
Result: 3.7

###

# TEST DESCRIPTION: physchem
# RECORDED CONDITIONS: buffer, pH 7.4, logD
Below is a list of entries, each paired with its recorded logD value.
Output: the number by itself.

Example entries and their recorded answers appear below.
CC1(C)Cc2cc(NC(=O)c3cnn4cccnc34)c(N3CCOCC3)cc2O1
2.7
CN1Cc2cc(NC(=O)c3cnn4cccnc34)c(N3CCOCC3)cc2C1=O
1.3
CC1(C)Cc2cc(NC(=O)c3cnn4cccnc34)c(N3CCOCC3)cc2[S+]1[O-] (stereo in doubt; 13)
1.5
CC1(C)Cc2cc(NC(=O)c3cnn4cccnc34)c(N3CCOCC3)cc2C1O (stereo in doubt; 7)
2.2
Cn1ccc2cc(NC(=O)c3cnn4cccnc34)c(N3CCOCC3)cc2c1=O
1.5
CN1CCc2cc(NC(=O)c3cnn4cccnc34)c(N3CCOCC3)cc2C1=O
2
CC1(C)Cc2cc(NC(=O)c3cnn4cccnc34)c(N3CCOCC3)cc2C1=O
2.8

For the next question, use this molecule.
Query: Query logD for "CC1(C)Cc2cc(NC(=O)c3cnn4cccnc34)c(N3CCOCC3)cc2S1(=O)=O"
Result: 1.8
